System: Leukemia (HL-60, U-937, NB4, Jurkat, K-562), ovarian (A2780), prostate (PC3) and breast (T47D) cancer cell lines
Protocol Summary: Cell viability assays (MTT and resazurin)
Type: cell-based
Settings: 72 hour treatment; range over all cell lines tested; read-out: IC50, inhibition of cancer cell proliferation
pIC50: −log10 of the molar value.
Test Readout: pIC50

{"columns": ["Item Smiles", "Reading"],
 "data": [
  ["Cc1cc(/C=C/C#N)cc(C)c1Nc1ccnc(Nc2ccc(C#N)cc2)n1", "5.10 to 5.52"]
]}

Source: patent US20230310427A1
